# target: dengue type 1 virus (DENV-1), Western Pacific strain, virions (dengue type 1 virus, UniProt P17763 281-775; P17763 115-280)
# Sequence (P17763 281-775 limits assumed, chain 1 of 2): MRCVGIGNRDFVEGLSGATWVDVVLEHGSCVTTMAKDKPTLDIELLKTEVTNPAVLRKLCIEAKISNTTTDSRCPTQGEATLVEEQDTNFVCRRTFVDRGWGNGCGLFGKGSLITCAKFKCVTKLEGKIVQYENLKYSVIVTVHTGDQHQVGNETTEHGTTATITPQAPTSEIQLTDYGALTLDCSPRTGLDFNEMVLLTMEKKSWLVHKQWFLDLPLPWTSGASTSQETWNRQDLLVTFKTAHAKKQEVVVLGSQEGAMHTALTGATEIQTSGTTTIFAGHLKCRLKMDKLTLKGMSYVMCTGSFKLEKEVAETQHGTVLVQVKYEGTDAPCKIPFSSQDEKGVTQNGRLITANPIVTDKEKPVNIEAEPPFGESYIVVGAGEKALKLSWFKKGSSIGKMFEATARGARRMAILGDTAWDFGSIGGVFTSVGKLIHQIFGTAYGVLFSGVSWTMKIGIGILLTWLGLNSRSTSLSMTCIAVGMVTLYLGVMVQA
# Sequence (P17763 115-280 limits assumed, chain 2 of 2): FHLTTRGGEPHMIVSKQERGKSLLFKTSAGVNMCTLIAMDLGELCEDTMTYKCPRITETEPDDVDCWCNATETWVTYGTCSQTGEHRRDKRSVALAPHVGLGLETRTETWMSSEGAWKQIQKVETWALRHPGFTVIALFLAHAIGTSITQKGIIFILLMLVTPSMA
# method_notes: ELISA, virion-coated plate, Fab from ~300 µg/ml

{"columns": ["binder", "ELISA titer of Fab binding"],
 "data": [
  ["chimpanzee Fab 7G4 (Fab, V domains shown) VH: EVQLLESGGGLVQPGGSLTLSCAASGFTFSSYWMHWVRQAPGKGPEWVALIKKDGSEKYYAESVKGRFTISRDNAKNSLYLQMNSLRAEDTAVYYCTRRITTLTVISDAFDIWGQGTMVTVSS VL: ELTQSPSTLSASVGDRVTITCRASQGISSWLAWYQQKPGKAPKFLIYKASSLESGVPSRFSGSGSGTEFTLTISSLQPDDFATYYCQQYGSYPLTFGPGTKVDIKR", "4.01 log10 of reciprocal dilution"],
  ["chimpanzee Fab 5H2 (Fab, V domains shown) VH: EVQLLESGPGLVKPSETLSLTCTVSGGSISDFYWSWLRQSPGKGLEWIGYAHSRVSAYYNPSLKSRVTISVDTSKNQLSLRLSAVTAADTALYYCARQGTGTTGVSEDPFDLWGQGTKVIVSL VL: ELQMTQSPSSLSASVGDRVTITCRASQDISIRLNWYQQKPGKAPKLLIYDASTLESGVPSRFSGSGSGTDFTLTISSLQPEDFATYYCQQFNSYPLTFGGGTKVEIKR", "< 1 log10 of reciprocal dilution"],
  ["chimpanzee Fab 5D9 (Fab, V domains shown) VH: EVQLLESGPGLVKPSETLSLTCTVSGGSISDFYWSWLRQSPGKGLEWIGVAHSRVSAYYNPSLKSRVTISVDTSKNQLSLRLSAVTAADAALYYCARQGTGTTGVSEDPFDLWGQGTKVIVSL VL: ELTQSPSSLSASVGDRVTITCRASQGISNRLNWYQQKPGQGPKFLMYDASSLVSGVPSRFSGSGSGTDFTLTISSLQPEDFAVYYCQQFNSYPLTFGGGTKLEIKR", "< 1 log10 of reciprocal dilution"],
  ["chimpanzee Fab 5A7 (Fab, V domains shown) VH: EVQLLESGGGLVQPGGSLRLSCAASGVTFSSYWMHWVRQAPGKGLEWVSRINSDGSSTNYADSVEGRFTISRDNAKNTLYLQMNSLRAEDTAVYYCSRGGLWDWSPRRIEETKTPFDYWGQGTLVTVSS VL: ELTQGPATLSLSPGERATLSCRAGQSLDSSLLSWYQQKPGQAPRLLMYDASTRAPGVPARFSGSGSGTDFTLTISSLQPEDFAVYYCQQHYNLPRTFGQGTKLEIKR", "2.51 log10 of reciprocal dilution"]
]}
